Measured IC50, listed per entry.
# Tested on: P. falciparum NF54
# measurement notes: P. falciparum blood stage assay (SYBR Green)
# Assay type: cell-based, Plasmodium falciparum
# condition info: Plasmodium falciparum, NF54; ring-stage parasites, 72 h, relative IC50
Kindly answer with a numeric value in nM, unit omitted.

Worked examples follow.
# compound, recorded value
measured = [
    ("Cc1n[nH]c(C)c1CCOc1cc(F)ccc1-c1cccc(OCCN(C)C)c1 [Compound 26i]", 400),
    ("c1cncc(CCOc2ccc3ccccc3c2-c2ccnc(N3CCNCC3)c2)c1 [Compound 30c]", 680),
    ("Cc1nn(C)c(C)c1CCOc1cc(F)ccc1-c1cccc(N2CCNCC2)c1 [Compound 12f]", 610),
    ("Cc1nn(C)c(C)c1CCOc1cccnc1-c1cccc(N2CCNCC2)c1 [Compound 12b]", 470),
    ("c1cncc(CCOc2cccnc2-c2cccc(N3CCNCC3)c2)c1 [Compound 12g]", 600),
]

Look up and state reported IC50 for Fc1ccc(-c2ccnc(N3CCNCC3)c2)c(OCCc2cccnc2)c1 [Compound 12l]
370

Look up and state reported IC50 for Cc1nn(C)c(C)c1CCOc1ccccc1-c1cccc(N2CCNCC2)c1 [Compound 12d]
800

Look up and state reported IC50 for c1cncc(CCOc2ccccc2-c2ccnc(N3CCNCC3)c2)c1 [Compound 12j]
1250

Look up and state reported IC50 for Cc1nn(C)c(C)c1CCOc1ccccc1-c1cccc(OCCN(C)C)c1 [Compound 26b]
710

Look up and state reported IC50 for Cc1nn(C)c(C)c1CCOc1cc(F)ccc1-c1cccc(OCCN(C)C)c1 [Compound 26c]
820

Look up and state reported IC50 for Cc1nn(C)c(C)c1CCOc1cccnc1-c1ccnc(N2CCNCC2)c1 [Compound 12a]
810

====

Measured schizonts (fold change to DMSO) mean diff, listed per entry.
# System: P. vivax schizonts
# measurement notes: P. vivax liver stage assay, schizonts
# Assay type: cell-based, Plasmodium vivax
# condition info: isolate 1, 20 µM
Kindly provide the number alone.

Look up and state reported schizonts (fold change to DMSO) mean diff for Cc1nn(C)c(C)c1CCOc1ccccc1-c1cccc(OCCN(C)C)c1 [Compound 26b]
0.917

Look up and state reported schizonts (fold change to DMSO) mean diff for Cc1nn(C)c(C)c1CCOc1cccnc1-c1ccnc(N2CCNCC2)c1 [Compound 12a]
0.850

Look up and state reported schizonts (fold change to DMSO) mean diff for Cc1nn(C)c(C)c1CCOc1cc(F)ccc1-c1cccc(N2CCNCC2)c1 [Compound 12f]
1.000

====

Measured IC50, listed per entry.
# target or test system: HsNMT1 (Homo sapiens, UniProt P30419)
# Sequence (P30419 whole entry): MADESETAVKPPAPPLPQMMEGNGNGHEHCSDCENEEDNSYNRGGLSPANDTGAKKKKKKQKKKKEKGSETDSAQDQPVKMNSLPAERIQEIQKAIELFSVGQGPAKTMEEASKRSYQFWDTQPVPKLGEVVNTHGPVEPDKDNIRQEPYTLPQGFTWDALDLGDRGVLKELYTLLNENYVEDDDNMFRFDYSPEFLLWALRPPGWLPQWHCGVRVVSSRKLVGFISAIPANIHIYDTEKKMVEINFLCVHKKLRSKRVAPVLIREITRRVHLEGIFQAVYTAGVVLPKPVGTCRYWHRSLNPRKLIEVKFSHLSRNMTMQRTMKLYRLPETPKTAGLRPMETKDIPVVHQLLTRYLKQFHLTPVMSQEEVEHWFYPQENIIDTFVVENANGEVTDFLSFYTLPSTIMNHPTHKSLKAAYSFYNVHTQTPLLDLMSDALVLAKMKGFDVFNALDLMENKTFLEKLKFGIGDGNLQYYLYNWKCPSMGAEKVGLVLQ
# measurement notes: NMT activity assay (CPM detection of free CoA), HsNMT
# condition info: read-out: HsNMT IC50; mean of two or more determinations
Kindly answer with a numeric value in µM, unit omitted.

Worked examples follow.
# compound, IC50 [µM]
measured = [
    ("Cc1nn(C)c(C)c1CCOc1ccc2ccccc2c1-c1ccnc(N2CCNCC2)c1 [Compound 30a]", 24),
    ("Cc1nn(C)c(C)c1CCOc1cc(F)ccc1-c1cc(N2CCNCC2)ncn1 [Compound 16b]", 27.6),
]

Look up and state reported IC50 for Cc1n[nH]c(C)c1CCOc1cc(F)ccc1-c1ccnc(N2CCNCC2)c1 [Compound 12q]
1.63
